These measurements were taken from the supplement of paper PMC5908809.

Documented percent inhibition of viability across a set of compounds
- System: KAI3 (IL-2 2.5 ng/mL)
- method-summary: percent inhibition of viability; higher = more inhibition;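 further: normalised to DMSO-only wells as negative and benzethonium chloride as positive control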
- assay-setup: 72 h; 0.1 nM
assay-endpoint: percent inhibition of viability (%)

[
  {
    "compound": "Cc1csc(-c2nnc(Nc3ccc(Oc4ncccc4-c4ccnc(N)n4)cc3)c3ccccc23)c1 [AMG-900] (max concentration tested 1000 nM)",
    "measurement-target": "KAI3 (IL-2 2.5 ng/mL)",
    "numeric-result": -5.87
  },
  {
    "compound": "CO[C@H]1C[C@@H]2CC[C@@H](C)[C@@](O)(O2)C(=O)C(=O)N2CCCC[C@H]2C(=O)O[C@H]([C@H](C)C[C@@H]2CC[C@@H](OCCO)[C@H](OC)C2)CC(=O)[C@H](C)/C=C(\\C)[C@@H](O)[C@@H](OC)C(=O)[C@H](C)C[C@H](C)/C=C/C=C/C=C/1C [Everolimus] (max concentration tested 100 nM)",
    "measurement-target": "KAI3 (IL-2 2.5 ng/mL)",
    "numeric-result": 2.36
  },
  {
    "compound": "CC(C)Oc1cc(Nc2nc(N[C@@H](C)c3ccc(F)cn3)ncc2Cl)n[nH]1 [AZ-23] (max concentration tested 1000 nM)",
    "measurement-target": "KAI3 (IL-2 2.5 ng/mL)",
    "numeric-result": 0.26
  },
  {
    "compound": "Cc1cc(Nc2nc(N[C@@H](C)c3ncc(F)cn3)ncc2Cl)[nH]n1 [AZD1480] (max concentration tested 1000 nM)",
    "measurement-target": "KAI3 (IL-2 2.5 ng/mL)",
    "numeric-result": 3.55
  },
  {
    "compound": "Cc1ccc(C(=O)Nc2ccc(CN3CCN(C)CC3)c(C(F)(F)F)c2)cc1C#Cc1cnc2cccnn12 [Ponatinib] (max concentration tested 1000 nM)",
    "measurement-target": "KAI3 (IL-2 2.5 ng/mL)",
    "numeric-result": -7.8
  },
  {
    "compound": "O=C(O)CC[C@H]1CC[C@@](c2cc(F)ccc2F)(S(=O)(=O)c2ccc(Cl)cc2)CC1 [MK-0752] (max concentration tested 1000 nM)",
    "measurement-target": "KAI3 (IL-2 2.5 ng/mL)",
    "numeric-result": -5.58
  },
  {
    "compound": "O=C1NC(=O)[C@@H](c2cn3c4c(cccc24)CCC3)[C@@H]1c1c[nH]c2ccccc12 [Tivantinib] (max concentration tested 1000 nM)",
    "measurement-target": "KAI3 (IL-2 2.5 ng/mL)",
    "numeric-result": -4.06
  }
]

* * *

- Test system: NK-92 (IL-2 2.5 ng/mL)
- method-summary: percent inhibition of viability; higher = more inhibition
- assay-setup: 72 h; 0.1 nM
assay-endpoint: percent inhibition of viability (%)

[
  {
    "compound": "COc1cc(CCc2cc(NC(=O)c3ccc(N4CC(C)NC(C)C4)cc3)n[nH]2)cc(OC)c1 (configuration not stated) [AZD4547] (max concentration tested 1000 nM)",
    "numeric-result": -8.61
  },
  {
    "compound": "CCN(CC)CCNC(=O)c1c(C)[nH]c(/C=C2\\C(=O)Nc3ccc(F)cc32)c1C [Sunitinib] (max concentration tested 1000 nM)",
    "numeric-result": -1.8
  },
  {
    "compound": "CC(C)Oc1cc(Nc2nc(N[C@@H](C)c3ccc(F)cn3)ncc2Cl)n[nH]1 [AZ-23] (max concentration tested 1000 nM)",
    "numeric-result": -8.37
  },
  {
    "compound": "C[C@]12CC[C@@H]3c4ccc(O)cc4C[C@@H](CCCCCCCCC[S+]([O-])CCCC(F)(F)C(F)(F)F)[C@H]3[C@@H]1CC[C@@H]2O (some centres not stated) [Fulvestrant] (max concentration tested 1000 nM)",
    "numeric-result": -8.22
  },
  {
    "compound": "Cc1csc(-c2nnc(Nc3ccc(Oc4ncccc4-c4ccnc(N)n4)cc3)c3ccccc23)c1 [AMG-900] (max concentration tested 1000 nM)",
    "numeric-result": -9.63
  },
  {
    "compound": "CC[C@]1(O)C[C@H]2CN(CCc3c([nH]c4ccccc34)[C@@](C(=O)OC)(c3cc4c(cc3OC)N(C=O)[C@H]3[C@@](O)(C(=O)OC)[C@H](OC(C)=O)[C@]5(CC)C=CCN6CC[C@]43[C@@H]65)C2)C1 [Vincristine] (max concentration tested 1000 nM)",
    "numeric-result": 0.11
  },
  {
    "compound": "O=C1NC(=O)[C@@H](c2cn3c4c(cccc24)CCC3)[C@@H]1c1c[nH]c2ccccc12 [Tivantinib] (max concentration tested 1000 nM)",
    "numeric-result": -9.63
  }
]
